experiment description: t1/2 is the time taken for the conversion of nicotinamides to isothiazolopyridine at pH=1.0
Format: ADME
assay endpoint: half-life (min)

molecule: COc1cc(C[S+]([O-])c2ncccc2C(=O)Nc2ccncc2)cc(OC)c1OC (stereo not given)
half-life [min]: 462
//
molecule: COc1cc(OC)c(C[S+]([O-])c2ncccc2C(=O)Nc2ccncc2)cc1Br (stereo not given)
half-life [min]: 4.2
//
molecule: COc1ccc(C[S+]([O-])c2ncccc2C(=O)Nc2ccncc2)cc1 (stereo not given)
half-life [min]: 128

1. COc1ccc(C[S+]([O-])c2ncccc2C(=O)Nc2ccncc2)c(OC)c1OC (stereo not given)
2. COc1cccc(OC)c1C[S+]([O-])c1ncccc1C(=O)Nc1ccncc1 (stereo not given)
Lower half-life: 1 or 2 ? Your answer should be the label attached to the chosen record. 1
(1: 27 min, 2: 39.6 min)

###

experiment description: t1/2 is the time taken for the conversion of nicotinamides to isothiazolopyridine at pH=3.0
Format: ADME
assay endpoint: half-life (h)

compound: COc1cc(OC)c(OC)cc1C[S+]([O-])c1ncccc1C(=O)Nc1ccncc1 (stereo not given)
half-life, h: 0.14
//
compound: COc1ccc(C[S+]([O-])c2ncccc2C(=O)Nc2ccncc2)c(OC)c1 (stereo not given)
half-life, h: 0.84
//
compound: COc1cc(OC)c(C[S+]([O-])c2ncccc2C(=O)Nc2ccncc2)cc1Br (stereo not given)
half-life, h: 28.8
//
compound: COc1ccc(C[S+]([O-])c2ncccc2C(=O)Nc2ccncc2)c(OCCO)c1 (stereo not given)
half-life, h: 1.78
//
compound: COc1ccc(C[S+]([O-])c2ncccc2C(=O)Nc2ccncc2)c(OCCF)c1 (stereo not given)
half-life, h: 3.3
//
compound: COCOc1cc(OC)ccc1C[S+]([O-])c1ncccc1C(=O)Nc1ccncc1 (stereo not given)
half-life, h: 8.25

I. COc1ccc(C[S+]([O-])c2ncccc2C(=O)Nc2ccncc2)c(OC)c1OC (stereo not given)
II. COc1ccc(C[S+]([O-])c2ncccc2C(=O)Nc2ccncc2)c(OC)c1C (stereo not given)
Lower half-life: I or II ? Your answer should be the label attached to the chosen record. II

###

experiment description: t1/2 is the time taken for the conversion of nicotinamides to isothiazolopyridine at pH=3.0
Type: ADME
assay endpoint: half-life (h)

I. COCOCCOc1cc(OC)ccc1C[S+]([O-])c1ncccc1C(=O)Nc1ccncc1 (centres undefined)
II. CCOc1ccc(C[S+]([O-])c2ncccc2C(=O)Nc2ccncc2)c(OCC)c1 (centres undefined)
III. CCOc1cc(OC)ccc1C[S+]([O-])c1ncccc1C(=O)Nc1ccncc1 (centres undefined)
IV. COc1cccc(OC)c1C[S+]([O-])c1ncccc1C(=O)Nc1ccncc1 (centres undefined)
Arrange the 4 molecules by rising half-life, starting with the smallest. Record the ranking as a list of labels in the requested order. II, III, I, IV
(II: 0.49 h, III: 0.71 h, I: 2.75 h, IV: 38.5 h)

###

experiment description: t1/2 is the time taken for the conversion of nicotinamides to isothiazolopyridine at pH=5.0
Assay type: ADME
assay endpoint: half-life (min)

A selection of reference data follows.
molecule: Cc1c(OCC(F)(F)F)ccnc1C[S+]([O-])c1nc2ccccc2[nH]1 (stereo unspecified) [LANSOPRAZOLE]
unit descriptor: min
half-life: 16.8
--
molecule: COc1cc(C)c(C[S+]([O-])c2ncccc2C(=O)Nc2ccncc2)c(OC)c1 (stereo unspecified)
unit descriptor: min
half-life: 257
--
molecule: COc1cc(OC)c(C[S+]([O-])c2ncccc2C(=O)Nc2ccncc2)c(OC)c1 (stereo unspecified)
unit descriptor: min
half-life: 17.4
--
molecule: COc1ccc2[nH]c([S+]([O-])Cc3ncc(C)c(OC)c3C)nc2c1 (stereo unspecified) [OMEPRAZOLE]
unit descriptor: min
half-life: 19.2

I. COc1ccnc(C[S+]([O-])c2nc3ccc(OC(F)F)cc3[nH]2)c1OC (stereo unspecified) [PANTOPRAZOLE]
II. COc1ccc(C[S+]([O-])c2ncccc2C(=O)Nc2ccncc2)c(OC)c1 (stereo unspecified)
Lower half-life: I or II ? Your answer should be the label attached to the chosen record. I

meta.source: ChEMBL document CHEMBL1130286
